Data provenance: ChEMBL document CHEMBL1151794

experimental.system: UniProtKB P06737
Sequence (whole entry): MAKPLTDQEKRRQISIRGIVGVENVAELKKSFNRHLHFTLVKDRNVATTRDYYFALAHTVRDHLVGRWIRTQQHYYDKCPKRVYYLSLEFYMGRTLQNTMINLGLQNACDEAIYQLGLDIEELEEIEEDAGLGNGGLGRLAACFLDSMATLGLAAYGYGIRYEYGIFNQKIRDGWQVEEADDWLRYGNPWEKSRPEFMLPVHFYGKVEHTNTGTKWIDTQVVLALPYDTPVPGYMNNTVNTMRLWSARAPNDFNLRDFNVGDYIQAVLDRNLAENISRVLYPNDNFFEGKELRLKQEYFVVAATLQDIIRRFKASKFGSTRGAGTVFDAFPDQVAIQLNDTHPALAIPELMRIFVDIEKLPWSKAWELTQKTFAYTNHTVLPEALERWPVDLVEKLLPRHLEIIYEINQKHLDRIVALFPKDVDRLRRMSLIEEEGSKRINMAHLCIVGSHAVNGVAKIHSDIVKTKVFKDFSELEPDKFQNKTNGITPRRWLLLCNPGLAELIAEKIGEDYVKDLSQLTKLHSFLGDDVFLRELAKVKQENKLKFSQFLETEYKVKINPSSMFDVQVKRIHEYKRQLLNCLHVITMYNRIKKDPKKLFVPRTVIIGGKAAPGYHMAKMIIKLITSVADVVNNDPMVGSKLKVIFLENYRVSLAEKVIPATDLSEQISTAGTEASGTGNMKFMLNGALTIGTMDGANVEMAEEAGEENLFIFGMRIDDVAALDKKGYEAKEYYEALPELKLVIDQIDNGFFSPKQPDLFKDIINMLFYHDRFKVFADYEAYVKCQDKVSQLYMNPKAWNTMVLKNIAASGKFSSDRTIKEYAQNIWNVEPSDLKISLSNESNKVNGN
assay.details: Inhibition of human liver glycogen phosphorylase a in absence of glucose at 10 uM
property: inhibition (%)

Illustrative cases are given below, each with its answer.
CC(C)(C)OC(=O)N(CCNC(=O)/C=C/c1ccc(Cl)c(Cl)c1)CCNC(=O)/C=C/c1ccc(Cl)c(Cl)c1	48
O=C(/C=C/c1ccc(Cl)c(Cl)c1)NCCNCCNC(=O)/C=C/c1ccc(Cl)c(Cl)c1	51

[A] O=C(/C=C\c1ccc(Cl)c(Cl)c1)NCCCCCNC(=O)/C=C\c1ccc(Cl)c(Cl)c1
[B] CCCNC(=O)/C=C/c1ccc(Cl)c(Cl)c1
Hi there, can you help? I need to know whether A or B has lower measured inhibition. Write the label of whichever entry you select.
B
